# Target or system: ~100 representative kinases (Homo sapiens)
# Construct: Recombinant protein kinase domains with a concentration of 2 μM
# Sequence (P17948 27-1338): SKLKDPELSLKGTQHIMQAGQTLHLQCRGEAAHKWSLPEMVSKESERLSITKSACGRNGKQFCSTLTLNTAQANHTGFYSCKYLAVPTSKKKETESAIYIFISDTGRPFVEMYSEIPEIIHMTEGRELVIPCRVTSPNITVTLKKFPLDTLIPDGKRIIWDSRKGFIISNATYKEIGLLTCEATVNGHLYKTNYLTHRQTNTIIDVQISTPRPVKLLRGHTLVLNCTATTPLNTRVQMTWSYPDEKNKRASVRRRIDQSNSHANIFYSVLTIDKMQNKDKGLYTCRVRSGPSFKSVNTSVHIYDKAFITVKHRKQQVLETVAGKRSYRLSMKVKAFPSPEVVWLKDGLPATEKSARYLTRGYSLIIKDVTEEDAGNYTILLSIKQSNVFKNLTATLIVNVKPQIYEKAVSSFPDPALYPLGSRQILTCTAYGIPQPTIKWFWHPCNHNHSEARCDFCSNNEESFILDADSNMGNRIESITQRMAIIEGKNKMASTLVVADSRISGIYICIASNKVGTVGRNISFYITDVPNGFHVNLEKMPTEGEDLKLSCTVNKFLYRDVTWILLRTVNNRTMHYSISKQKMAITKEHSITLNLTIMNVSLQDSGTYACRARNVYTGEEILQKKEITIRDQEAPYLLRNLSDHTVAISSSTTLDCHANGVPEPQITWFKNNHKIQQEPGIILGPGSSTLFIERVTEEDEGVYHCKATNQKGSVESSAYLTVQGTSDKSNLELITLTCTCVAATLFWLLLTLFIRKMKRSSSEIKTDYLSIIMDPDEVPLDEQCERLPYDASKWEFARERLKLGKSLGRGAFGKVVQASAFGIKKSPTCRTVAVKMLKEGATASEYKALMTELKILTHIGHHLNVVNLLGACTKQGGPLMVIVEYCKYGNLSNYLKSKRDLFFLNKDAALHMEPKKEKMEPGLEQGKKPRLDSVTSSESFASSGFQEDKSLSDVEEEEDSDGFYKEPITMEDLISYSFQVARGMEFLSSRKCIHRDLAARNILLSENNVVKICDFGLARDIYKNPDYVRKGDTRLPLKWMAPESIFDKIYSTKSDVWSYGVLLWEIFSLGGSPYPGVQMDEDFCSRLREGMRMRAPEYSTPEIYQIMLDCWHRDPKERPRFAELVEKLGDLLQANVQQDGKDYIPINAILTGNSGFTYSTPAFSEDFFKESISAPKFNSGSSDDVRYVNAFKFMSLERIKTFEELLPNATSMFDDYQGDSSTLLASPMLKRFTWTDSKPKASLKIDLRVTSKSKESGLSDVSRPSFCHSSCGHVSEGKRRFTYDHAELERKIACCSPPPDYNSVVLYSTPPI
# Assay notes: DSF 100 kinase selectivity screen;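 further: compound tested at 20 µM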
# Format: binding
# Stated conditions: protein FLT1; average of three replicates
Endpoint: dTm (K)
Give just the numeric value; K need not be written.

input: # query: dTm of entry COc1ccc(NC(=O)C2(C(=O)Nc3cccc(-c4c[nH]c5ncnc(N6CCOCC6)c45)c3)CC2)cc1
output: 2.53

input: # query: dTm of entry O=C(Nc1cccc(-c2c[nH]c3ncnc(N4CCOCC4)c23)c1)C1(C(=O)Nc2cc(Br)c(F)cc2F)CC1
output: 1.86

input: # query: dTm of entry C[C@@H]1CN(c2cc(-c3n[nH]c4ccc(OC5(C)CC5)cc34)ncn2)C[C@H](C)O1
output: 0.51

input: # query: dTm of entry CN[C@@H]1C[C@H]2O[C@@](C)([C@@H]1OC)n1c3ccccc3c3c4c(c5c6ccccc6n2c5c31)C(=O)NC4
output: 13.08
